test: Stabilization effect on perfume under daylight exposure (Test Examples 92 to 181)
Type: physicochemical
Parameters: key: ◯: no change; Δ: almost no change; x: change
experimental-context: natural perfume Ylang ylang oil; photostabilizer 0.2 wt %; daylight exposure (80 MJ)
readout-name: odor determination

[
  {
    "compound": "Oc1nncc(N2CCCCC2)c1N1CCCCC1 [4,5-Dipiperidino-3-hydroxypyridazine]",
    "val": "◯"
  },
  {
    "compound": "Oc1ccc(N2CCOCC2)nn1 [3-Hydroxy-6-morpholinopyridazine, 6-Morpholino-3-hydroxypyridazine]",
    "val": "◯"
  },
  {
    "compound": "Oc1cc(N2CCOCC2)cnn1 [3-Hydroxy-5-morpholinopyridazine, 3-hydroxy-5-morpholinopyridazine]",
    "val": "◯"
  },
  {
    "compound": "COc1ccc(C(=O)c2ccccc2)c(O)c1 [2-Hydroxy-4-methoxybenzophenone, reference compound]",
    "val": "Δ"
  }
]

Read the next record carefully.
Entry under review: COc1ccc(C(=O)CC(=O)c2ccc(C(C)(C)C)cc2)cc1 [4-tert-Butyl-4′-methoxydibenzoylmethane, reference compound] . Reported odor determination? Δ
